Conditions: human gut metagenome, 24 h, 2 µM; note: call rule not given here
propertyName: Bacterial Biotransformation

Record excerpt, results attached:
{"molecule": "C#C[C@]1(OC(C)=O)CC[C@H]2[C@@H]3CCC4=C[C@@H](OC(C)=O)CC[C@@H]4[C@H]3CC[C@@]21C [ETHYNODIOL DIACETATE]", "Bacterial Biotransformation": "Compound metabolized"}
{"molecule": "O=C1C(CC[S+]([O-])c2ccccc2)C(=O)N(c2ccccc2)N1c1ccccc1 (stereo not drawn) [SULFINPYRAZONE]", "Bacterial Biotransformation": "Compound metabolized"}
{"molecule": "CCc1cccc2c3c([nH]c12)C(CC)(CC(=O)O)OCC3 (stereo not drawn) [ETODOLAC]", "Bacterial Biotransformation": "Compound metabolized"}
{"molecule": "CN1[C@@H]2CC[C@H]1C[C@@H](OC(=O)c1c[nH]c3ccccc13)C2 [TROPISETRON]", "Bacterial Biotransformation": "Compound NOT metabolized"}
{"molecule": "CC(C)(C)N.CCC[C@H](N[C@@H](C)C(=O)N1[C@H](C(=O)O)C[C@@H]2CCCC[C@@H]21)C(=O)OCC [PERINDOPRIL ERBUMINE]", "Bacterial Biotransformation": "Compound NOT metabolized"}
{"molecule": "CC#CCn1c(N2CCC[C@@H](N)C2)nc2c1c(=O)n(Cc1nc(C)c3ccccc3n1)c(=O)n2C [LINAGLIPTIN]", "Bacterial Biotransformation": "Compound NOT metabolized"}
{"molecule": "Cc1cc2c(s1)Nc1ccccc1N=C2N1CCN(C)CC1 [OLANZAPINE]", "Bacterial Biotransformation": "Compound metabolized"}

Now look at this one.
Find the recorded Bacterial Biotransformation belonging to O=C1CN2Cc3c(ccc(Cl)c3Cl)N=C2N1 [ANAGRELIDE] and report it.
Compound NOT metabolized

---

Assay: The drug is tested on Z-027 corresponding to metagenome with ENA study accession number: PRJEB37062 and ENA sample accession number: ERS12561826 for biotransformation under anaerobic condition. The drug concentrations were measured over 9 timepoints collected between 0 and 24 hours of incubation by liquid-chromatography-coupled mass spectrometry (LC–MS)
Details: 2 µM
propertyName: Bacterial Biotransformation

{"molecule": "c1ccc2[nH]c(-c3cscn3)nc2c1", "Bacterial Biotransformation": "Compound NOT metabolized"}
{"molecule": "CN(CCOc1ccc(CC2SC(=O)NC2=O)cc1)c1ccccn1.O=C(O)/C=C\\C(=O)O (stereo unspecified) [ROSIGLITAZONE MALEATE]", "Bacterial Biotransformation": "Compound NOT metabolized"}
{"molecule": "O=P1(N(CCCl)CCCl)NCCCO1 (stereo unspecified) [CYCLOPHOSPHAMIDE ANHYDROUS]", "Bacterial Biotransformation": "Compound NOT metabolized"}
{"molecule": "CC[C@H](C)C(=O)O[C@H]1CCC=C2C=C[C@H](C)[C@H](CC[C@@H]3C[C@@H](O)CC(=O)O3)[C@H]21", "Bacterial Biotransformation": "Compound NOT metabolized"}
{"molecule": "CN1C[C@H](C(=O)N[C@]2(C)O[C@@]3(O)[C@@H]4CCCN4C(=O)[C@H](Cc4ccccc4)N3C2=O)C[C@@H]2c3cccc4[nH]cc(c34)C[C@H]21.CS(=O)(=O)O [DIHYDROERGOTAMINE MESYLATE]", "Bacterial Biotransformation": "Compound NOT metabolized"}
{"molecule": "CN[C@H]1CC[C@@H](c2ccc(Cl)c(Cl)c2)c2ccccc21", "Bacterial Biotransformation": "Compound metabolized"}
{"molecule": "CC(C)C[C@H]1C(=O)N2CCC[C@H]2[C@]2(O)O[C@](NC(=O)[C@@H]3C=C4c5cccc6[nH]c(Br)c(c56)C[C@H]4N(C)C3)(C(C)C)C(=O)N12.CS(=O)(=O)O [BROMOCRIPTINE MESYLATE]", "Bacterial Biotransformation": "Compound metabolized"}
{"molecule": "CCOC(=O)[C@H](CCc1ccccc1)N[C@@H](C)C(=O)N1CCC[C@H]1C(=O)O.O=C(O)/C=C\\C(=O)O [ENALAPRIL MALEATE]", "Bacterial Biotransformation": "Compound NOT metabolized"}
{"molecule": "CN(C)CCOC(C)(c1ccccc1)c1ccccn1.O=C(O)CCC(=O)O (stereo unspecified) [DOXYLAMINE SUCCINATE]", "Bacterial Biotransformation": "Compound NOT metabolized"}
{"molecule": "OC(c1cc(C(F)(F)F)nc2c(C(F)(F)F)cccc12)C1CCCCN1 (stereo unspecified)", "Bacterial Biotransformation": "Compound NOT metabolized"}

Find the recorded Bacterial Biotransformation belonging to C#C[C@]1(OC(C)=O)CC[C@H]2[C@@H]3CCC4=CC(=O)CC[C@@H]4[C@H]3CC[C@@]21C [NORETHINDRONE ACETATE] and report it.
Compound metabolized

---

Conditions: human gut metagenome, 24 h, 2 µM
propertyName: Bacterial Biotransformation

{"compound": "COc1ccc(C(CN(C)C)C2(O)CCCCC2)cc1 (stereo unspecified)", "Bacterial Biotransformation": "Compound NOT metabolized"}
{"compound": "CC(=O)OCC(=O)[C@@]1(OC(C)=O)[C@@H](C)C[C@H]2[C@@H]3C[C@H](F)C4=CC(=O)C=C[C@]4(C)[C@@]3(F)[C@@H](O)C[C@@]21C [DIFLORASONE DIACETATE]", "Bacterial Biotransformation": "Compound metabolized"}
{"compound": "CCOc1ccccc1OCCN[C@H](C)Cc1ccc(OC)c(S(N)(=O)=O)c1.Cl [TAMSULOSIN HYDROCHLORIDE]", "Bacterial Biotransformation": "Compound NOT metabolized"}
{"compound": "Clc1cccc(Cl)c1N=C1NCCN1", "Bacterial Biotransformation": "Compound NOT metabolized"}
{"compound": "CC(=O)Oc1ccc(C(c2ccc(OC(C)=O)cc2)c2ccccn2)cc1", "Bacterial Biotransformation": "Compound metabolized"}

Now look at this one.
Find the recorded Bacterial Biotransformation belonging to C=C[C@H]1CN2CC[C@H]1C[C@H]2[C@H](O)c1ccnc2ccc(OC)cc12.C=C[C@H]1CN2CC[C@H]1C[C@H]2[C@H](O)c1ccnc2ccc(OC)cc12.O.O.O=S(=O)(O)O [QUININE SULFATE] and report it.
Compound metabolized

---

Assay: The drug is tested on WLS-098 corresponding to human gut metagenome with ENA study accession number: PRJEB37062 and ENA sample accession number: ERS12561754 for biotransformation under anaerobic condition. The drug concentrations were measured over 9 timepoints collected between 0 and 24 hours of incubation by liquid-chromatography-coupled mass spectrometry (LC–MS)
Conditions: 2 µM
propertyName: Bacterial Biotransformation

{"compound": "CCCCC(=O)O[C@]1(C(=O)CO)[C@@H](C)C[C@H]2[C@@H]3CCC4=CC(=O)C=C[C@]4(C)[C@@]3(F)[C@@H](O)C[C@@]21C [BETAMETHASONE VALERATE]", "propertyName": "Bacterial Biotransformation", "recordedValue": "Compound NOT metabolized"}
{"compound": "CN1[C@@H]2CC[C@H]1C[C@@H](OC(=O)c1c[nH]c3ccccc13)C2 [TROPISETRON]", "propertyName": "Bacterial Biotransformation", "recordedValue": "Compound NOT metabolized"}
{"compound": "CC(=O)OCC(=O)[C@@]1(OC(C)=O)[C@@H](C)C[C@H]2[C@@H]3C[C@H](F)C4=CC(=O)C=C[C@]4(C)[C@@]3(F)[C@@H](O)C[C@@]21C [DIFLORASONE DIACETATE]", "propertyName": "Bacterial Biotransformation", "recordedValue": "Compound metabolized"}
{"compound": "CC(C)(C)N.CCC[C@H](N[C@@H](C)C(=O)N1[C@H](C(=O)O)C[C@@H]2CCCC[C@@H]21)C(=O)OCC [PERINDOPRIL ERBUMINE]", "propertyName": "Bacterial Biotransformation", "recordedValue": "Compound metabolized"}

Find the recorded Bacterial Biotransformation belonging to Br.CN1CCC[C@@H]1Cc1c[nH]c2ccc(CCS(=O)(=O)c3ccccc3)cc12 [ELETRIPTAN HYDROBROMIDE] and report it.
Compound metabolized

Find the recorded Bacterial Biotransformation belonging to CCN(CC)CCNC(=O)c1ccc(NC(C)=O)cc1 [ACECAINIDE] and report it.
Compound metabolized

Find the recorded Bacterial Biotransformation belonging to Cc1ccccc1C(OCCN(C)C)c1ccccc1.O=C(O)CC(O)(CC(=O)O)C(=O)O (configuration not stated) [ORPHENADRINE CITRATE] and report it.
Compound NOT metabolized

---

Details: human gut metagenome, 24 h, 2 µM
propertyName: Bacterial Biotransformation

Record excerpt, results attached:
{"compound": "C#C[C@]1(OC(C)=O)CC[C@H]2[C@@H]3CCC4=C/C(=N/O)CC[C@@H]4[C@H]3CC[C@@]21CC [NORGESTIMATE]", "Bacterial Biotransformation": "Compound metabolized"}
{"compound": "CCCC(C)(COC(N)=O)COC(=O)NC(C)C (stereo not given)", "Bacterial Biotransformation": "Compound metabolized"}
{"compound": "COc1ccc2cc([C@H](C)C(=O)O)ccc2c1", "Bacterial Biotransformation": "Compound metabolized"}
{"compound": "CN1CCN(C2=Nc3ccccc3Oc3ccc(Cl)cc32)CC1.O=C(O)CCC(=O)O [LOXAPINE SUCCINATE]", "Bacterial Biotransformation": "Compound NOT metabolized"}

Find the recorded Bacterial Biotransformation belonging to O=C(O)CCC(=O)O.O=C(O[C@H]1CN2CCC1CC2)N1CCc2ccccc2[C@@H]1c1ccccc1 [SOLIFENACIN SUCCINATE] and report it.
Compound metabolized

Find the recorded Bacterial Biotransformation belonging to COc1cc2nc(N3CCN(C(=O)C4COc5ccccc5O4)CC3)nc(N)c2cc1OC.CS(=O)(=O)O (stereo not given) [DOXAZOSIN MESYLATE] and report it.
Compound metabolized

Find the recorded Bacterial Biotransformation belonging to CC(=O)Nc1ccc(OC(C)=O)cc1 [DIACETAMATE] and report it.
Compound metabolized
